# Tested on: HeLa Kyoto;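 note: synchronized HeLa Kyoto cells (double thymidine block for G1/S, nocodazole release for mitosis), protein amounts in NP-40 versus SDS lysates quantified by mass spectrometry, three biological replicates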
# assay remarks: solubility change mitosis vs G1/S (difference of NP-40 vs SDS log2 ratios) (log2 ratio difference); higher = more soluble in mitosis
measure name: solubility change mitosis (log2)
Please reply with the value in numeric form only.

Qu. Name the reported solubility change mitosis (log2) value associated with the sequence MSLYPSLEDLKVDKVIQAQTAFSANPANPAILSEASAPIPHDGNLYPRLYPELSQYMGLSLNEEEIRANVAVVSGAPLQGQLVARPSSINYMVAPVTGNDVGIRRAEIKQGIREVILCKDQDGKIGLRLKSIDNGIFVQLVQANSPASLVGLRFGDQVLQINGENCAGWSSDKAHKVLKQAFGEKITMTIRDRPFERTITMHKDSTGHVGFIFKNGKITSIVKDSSAARNGLLTEHNICEINGQNVIGLKDSQIADILSTSGTVVTITIMPAFIFEHIIKRMAPSIMKSLMDHTIPEV [SDCBP]
Ans. -0.0317

Now let's try a different one.
Qu. Reported solubility change mitosis (log2) for MNSRQAWRLFLSQGRGDRWVSRPRGHFSPALRREFFTTTTKEGYDRRPVDITPLEQRKLTFDTHALVQDLETHGFDKTQAETIVSALTALSNVSLDTIYKEMVTQAQQEITVQQLMAHLDAIRKDMVILEKSEFANLRAENEKMKIELDQVKQQLMHETSRIRADNKLDINLERSRVTDMFTDQEKQLMETTTEFTKKDTQTKSIISETSNKIDAEIASLKTLMESNKLETIRYLAASVFTCLAIALGFYRFWK [CCDC90B] : what is it?
Ans. 0.249
